protocolText: yeast display, Sf9 membrane polyspecificity reagent, FACS + sequencing; frameworks hold sequencing errors
valueType: polyreactivity (PSR sort gate)

Example sequences with recorded polyreactivity (PSR sort gate):
itemsequence=QGQLVESGGALVQAGGSLRLSCAPSGSTFGVYTMGWYRQAPGKERELVAAITKSGGSTYYADSVKGRFTISRDNAKNTVYLQMNSLKPEDTAVYYCNTDYGSYLYYRYGYWGQGTQVTVSS result="low polyreactivity"
itemsequence=QVQLVESGGGLVQAGGSLRLSCADSGRTFVGNAMGWSRQAPGKERELVAAITSRTGSTYYADSVKGRFTISRDNAKNTVYLQMTSLTPEDTAVYYCATPYYQNVYSRKAYTYWGQGTQVTVSS result="high polyreactivity"
itemsequence=QVQVVESGGGLVQAGGSLRLSCAASGSTFYSNAMGWYSQAAGQERELVAAITWSDGSTYYADSVMGRFTISRDNAKHTVYVQMNSHKPEDTALYYCSATQAEVVWTPVYVEYDYWGQGTQVTVSS result="high polyreactivity"
itemsequence=QVQLVESGGGLVQAGGSLRLSCAASGFTFSKYAMGWYLQAPGKERELVAAISRRGGSTYYADSVKGRFTISRDNAKNTVYLQMNSLKPEDTAVYYCAARYSVGTGYGYWGQGTQVTVSS result="high polyreactivity"
itemsequence=QVQLVESGGGLVQAGGSLRLSCAASGRTFLGYAMGWYRQAPGKERELVAAISSSGGSTYYADSVKGRVTISRDNAKNTVYFQMNCLKPEDTAVYYCAKRKRATGASGHGFGYWGQGTQVTVSS result="high polyreactivity"
itemsequence=QVQLVESGGGLVQAGGSLRLSCAASGSIFGRYVMGWYRQAPGKERELVARITQSGGSTYYADSVKGRFTISRDNAKNTVYLQMNSLKPEDTAVYYCAAATSWWWLYYWGQGTQVTVSS result="high polyreactivity"
itemsequence=QVQLVESGGGLVQAGGSLRLSCAASGRTFTDNAMGWYRQAPGKERELVAAISRRGGSTYYADSVKGRFTISRDNAKNTVYLQMNSLKPEVTAVYYCNTDEIAGGFPYRYYLYYGYDYWGQGTQVTVSS result="low polyreactivity"
itemsequence=QVQLVESGGGLVQAGGRLRLSCAASGFTFSVYPMGWYIQAPGKERELVAAISWSGGSTYYADSVKGRFTISRDNAKNTVYVQMNSLKPEDTAVYYCNAYFSYKYRYPEDYWGQGTQVTVSS result="high polyreactivity"
itemsequence=QVQLVESGGGLVQAGGSLSLSCAASGSTFVPYAMGWYRQAPGKERELVAAISSTGGSTYYADSVKGRFTISRDNAKNTVYLQMNSLKAEDTAVYYCNALAKIRYGQINKGYYWGQGTQVTVSS result="high polyreactivity"
itemsequence=QVQLVESGGGLVQAGGSLRLSCAASGSIFGFNAMGWYRQAPGKERELVASISSSGDSTYYADSVKGRFTISRDNAKNTVYLLMNSLKPEDTAVYYCATEGRTDYNREMEYWGQGTQVTVSS result="low polyreactivity"

Consider the sequence shown here: QVHLVESGGGLVQAGGSLRLSCAASGSILLINAMGWYRQAPGKERELVAAIRTGGSTYYADSVKGRFTISRDNAKNTVSLQMNSLKPEDTAVYYCAVRTGRRWWKFDYWGQGTQVTVSS What is its recorded polyreactivity (PSR sort gate)?
low polyreactivity

Hello, the source for this data is the nanobody polyreactivity screen of Harvey et al. (2022), in case you need it.
